System: MCF7
assay summary: Antiproliferative activity against human MCF7 cells assessed as cell viability after 72 hrs by MTT assay
Format: functional, cell-based
measurement conditions: MCF7, 72 h
measured property: IC50

Solved entries:
compound: CC1(C)CC[C@]2(C(=O)O)CC[C@]3(C)C(=CC[C@@H]4[C@@]5(C)CC[C@H](O[C@@H]6O[C@H](CO[C@@H]7OC[C@H](O)[C@H](O)[C@H]7O)[C@@H](O)[C@H](O)[C@H]6NC(=O)/C=C/c6ccccc6)C(C)(C)[C@@H]5CC[C@]43C)[C@@H]2C1
IC50: 45.2 µM
--
compound: CC1(C)CC[C@]2(C(=O)O)CC[C@]3(C)C(=CC[C@@H]4[C@@]5(C)CC[C@H](O[C@@H]6O[C@H](CO[C@@H]7OC[C@H](O)[C@H](O)[C@H]7O)[C@@H](O)[C@H](O)[C@H]6NC(=O)/C=C/c6ccc(Cl)cc6)C(C)(C)[C@@H]5CC[C@]43C)[C@@H]2C1
IC50: > 50 µM
--
compound: COc1ccc(OC)c(/C=C/C(=O)N[C@H]2[C@H](O[C@H]3CC[C@]4(C)[C@H]5CC=C6[C@@H]7CC(C)(C)CC[C@]7(C(=O)O)CC[C@@]6(C)[C@]5(C)CC[C@H]4C3(C)C)O[C@H](CO[C@@H]3OC[C@H](O)[C@H](O)[C@H]3O)[C@@H](O)[C@@H]2O)c1
IC50: > 50 µM

Please supply IC50 for each of the following items, keeping them in order.
1. Cc1cccc(/C=C/C(=O)N[C@H]2[C@H](O[C@H]3CC[C@]4(C)[C@H]5CC=C6[C@@H]7CC(C)(C)CC[C@]7(C(=O)O)CC[C@@]6(C)[C@]5(C)CC[C@H]4C3(C)C)O[C@H](CO[C@@H]3OC[C@H](O)[C@H](O)[C@H]3O)[C@@H](O)[C@@H]2O)c1
2. O=c1[nH]cc(F)c(=O)[nH]1 [FLUOROURACIL]
3. COc1ccc(/C=C/C(=O)N[C@H]2[C@H](O[C@H]3CC[C@]4(C)[C@H]5CC=C6[C@@H]7CC(C)(C)CC[C@]7(C(=O)O)CC[C@@]6(C)[C@]5(C)CC[C@H]4C3(C)C)O[C@H](CO[C@@H]3OC[C@H](O)[C@H](O)[C@H]3O)[C@@H](O)[C@@H]2O)cc1OC
4. COc1cc(/C=C/C(=O)N[C@H]2[C@H](O[C@H]3CC[C@]4(C)[C@H]5CC=C6[C@@H]7CC(C)(C)CC[C@]7(C(=O)O)CC[C@@]6(C)[C@]5(C)CC[C@H]4C3(C)C)O[C@H](CO[C@@H]3OC[C@H](O)[C@H](O)[C@H]3O)[C@@H](O)[C@@H]2O)cc(OC)c1

1: > 50 µM; 2: 26.1 µM; 3: > 50 µM; 4: > 50 µM

* * *

System: MCF7
assay summary: Antiproliferative activity against human MCF7 cells assessed as cell viability after 72 hrs by MTT assay
Assay type: functional, cell-based
measurement conditions: MCF7, 72 h
pIC50: −log10 of the molar value.
measured property: pIC50

Give me pIC50 for each of these compounds, listed below.
1. CC1(C)CC[C@]2(C(=O)O)CC[C@]3(C)C(=CC[C@@H]4[C@@]5(C)CC[C@H](O[C@@H]6O[C@H](CO[C@@H]7OC[C@H](O)[C@H](O)[C@H]7O)[C@@H](O)[C@H](O)[C@H]6NC(=O)/C=C/c6ccc(Br)cc6)C(C)(C)[C@@H]5CC[C@]43C)[C@@H]2C1
2. CC1(C)CC[C@]2(C(=O)O)CC[C@]3(C)C(=CC[C@@H]4[C@@]5(C)CC[C@H](O[C@@H]6O[C@H](CO[C@@H]7OC[C@H](O)[C@H](O)[C@H]7O)[C@@H](O)[C@H](O)[C@H]6NC(=O)/C=C/c6ccc(OCc7ccccc7)cc6)C(C)(C)[C@@H]5CC[C@]43C)[C@@H]2C1
3. Cc1ccc(/C=C/C(=O)N[C@H]2[C@H](O[C@H]3CC[C@]4(C)[C@H]5CC=C6[C@@H]7CC(C)(C)CC[C@]7(C(=O)O)CC[C@@]6(C)[C@]5(C)CC[C@H]4C3(C)C)O[C@H](CO[C@@H]3OC[C@H](O)[C@H](O)[C@H]3O)[C@@H](O)[C@@H]2O)cc1
4. CC1(C)CC[C@]2(C(=O)O)CC[C@]3(C)C(=CC[C@@H]4[C@@]5(C)CC[C@H](O[C@@H]6O[C@H](CO[C@@H]7OC[C@H](O)[C@H](O)[C@H]7O)[C@@H](O)[C@H](O)[C@H]6NC(=O)/C=C/c6cccc(Br)c6)C(C)(C)[C@@H]5CC[C@]43C)[C@@H]2C1
5. COc1cccc(/C=C/C(=O)N[C@H]2[C@H](O[C@H]3CC[C@]4(C)[C@H]5CC=C6[C@@H]7CC(C)(C)CC[C@]7(C(=O)O)CC[C@@]6(C)[C@]5(C)CC[C@H]4C3(C)C)O[C@H](CO[C@@H]3OC[C@H](O)[C@H](O)[C@H]3O)[C@@H](O)[C@@H]2O)c1OC
6. CC(=O)N[C@H]1[C@H](O[C@H]2CC[C@]3(C)[C@H]4CC=C5[C@@H]6CC(C)(C)CC[C@]6(C(=O)O)CC[C@@]5(C)[C@]4(C)CC[C@H]3C2(C)C)O[C@H](CO[C@@H]2OC[C@H](O)[C@H](O)[C@H]2O)[C@@H](O)[C@@H]1O
7. CC1(C)CC[C@]2(C(=O)O)CC[C@]3(C)C(=CC[C@@H]4[C@@]5(C)CC[C@H](O[C@@H]6O[C@H](CO[C@@H]7OC[C@H](O)[C@H](O)[C@H]7O)[C@@H](O)[C@H](O)[C@H]6NC(=O)/C=C/c6ccc(C(C)(C)C)cc6)C(C)(C)[C@@H]5CC[C@]43C)[C@@H]2C1

1: < 4.30; 2: < 4.30; 3: 4.42; 4: < 4.30; 5: < 4.30; 6: 5.03; 7: < 4.30

Source listed as ChEMBL document CHEMBL3774313.
